Assayed target: T1, huCD4-HIS (human, UniProt P01730 26-390, limits assumed)
T1 construct: Named only in the head of the Ibalizumab ELISA binning column; Neither the source nor the construct limits are told in this stretch; not shown: HIS tag
Run description: ELISA binning, competitor Ibalizumab; 100 ng/mL huCD4-HIS, anti-HIS HRP detection; background 45, max binding 3000000
Observed property: Ibalizumab ELISA binning signal

1. 75110_08H06A (antibody, V domains shown, Tested as non-clonal hybridoma supernatant from AlivaMab Mouse Kappa mice, detected with anti-mouse Fc and anti-human Kappa) VH: EVQLVESGGGLVQPGGSLRLSCAASGFTFSNYDMHWVRQATGKGLEWVSTIGTAGDTYYPGSVKGRFTISRENAKNSLYLQMNSLRAGDTAVYYCARGGYDYYGMDVWGQGTTVTVSS VL: EIVLTQSPGTLSLSPGERATLSCRASQSITSIYLAWYRQKPGQAPRLLIYGASSRATGIPDRFSGSGSGTDFTLTISRLEPEDFAVYYCQQYGSSPFTFGPGTKVDIK	1.42e+06
2. 75110_10N21A (antibody, V domains shown, Tested as non-clonal hybridoma supernatant from AlivaMab Mouse Kappa mice, detected with anti-mouse Fc and anti-human Kappa) VH: EVQLVESGGGLVQPGGSLRLSCAASGFTFSSYDMHWVRQVTGKGLEWVSTIGTAGDTYYPGSVKGRFTISRENAKNSLYLQMNSLRAGDTAVYYCARGGYYYYGMDVWGQGTTVTVSS VL: EIVLTQSPGTLSLSPGERATLSCRASQSFISSYLAWYQQKPGQAPRLLIYGASSRATGIPDRFSGSGSGTDFTLTISRLDPEDFAVYYCQQSGNSPFTFGPGTKVDVK	1.58e+06
